- PROCEDURE_DETAILS: Ionization constant (pKa2) by treating potentiometric titration data according to the method Noyes
- Format: physicochemical
- MEASUREMENT_CONTEXT: read-out: pKa2
MEASUREMENT_LABEL: pKa

O=C(O)C(Oc1ccc2cc(Br)ccc2c1)C(=O)O; 3.91
O=C(O)C(F)(Oc1ccc2cc(Br)ccc2c1)C(=O)O; 2.84

Measured values drawn from ChEMBL document CHEMBL1129503 for this set.
